TGI values, listed per item
# Tested on: RPMI-8226 leukemia
# Protocol Text: NCI tumour cell line growth inhibition, 48 h
Metric Name: TGI (µM)

molecule="N=C(N)C(N=Nc1ccccc1)C(=N)N (stereo not given)" modifier_sign=> observed=100
molecule=CCC/C(Cl)=N\OC(=O)Nc1ccc(Br)cc1 modifier_sign== observed=12.2
molecule=COc1cc2c(cc1OCCCCCN1CCN(c3cc(=O)oc4c(C)c(OC)ccc34)CC1)N=C[C@@H]1CCCN1C2=O modifier_sign=< observed=0.0118
molecule=Fc1ccc(Nc2ccc3cc(OCCCN4CCOCC4)ccc3n2)cc1F modifier_sign=> observed=100
molecule=COc1cc(N)ccc1Nc1c2ccccc2nc2ccccc12 modifier_sign=> observed=29.9
molecule=COc1ccc(C(=O)O)c2c(=O)c3ccccc3[nH]c12 modifier_sign=> observed=100
molecule=CC1(C)C[C@H]2C3=CC[C@@H]4[C@@]5(C)CC[C@H](O)C(C)(C)[C@@H]5CC[C@@]4(C)[C@]3(C)C[C@@H](O)[C@@]23C[C@@H]1OC3=O modifier_sign=> observed=100
molecule=CCN(CC)CCCN1C(=O)c2c(c(C)c3c(oc4cc(O)ccc43)c2C)C1=O modifier_sign== observed=4.17
molecule=C=C1C(=O)O[C@H]2[C@H]1CC/C(COC(=O)N[C@@H](Cc1c[nH]c3ccccc13)C(=O)OC)=C\CC[C@@]1(C)O[C@@H]21 modifier_sign== observed=2.71
molecule=COc1ccc(C(=O)c2ccc(OC)cc2OC)cc1 modifier_sign== observed=18.7
molecule="CCC(C)C(NC(=O)C(CCCCN)NC(=O)C(NC(=O)C(CCC(N)=O)NC(=O)C(CCCNC(=N)N)NC(C)=O)C(C)CC)C(=O)NC(Cc1c[nH]c2ccccc12)C(=O)NC(Cc1ccccc1)C(=O)NC(CCC(N)=O)C(=O)NC(CC(N)=O)C(=O)NC(CCCNC(=N)N)C(=O)NC(CCCNC(=N)N)C(=O)NC(CCSC)C(=O)NC(CCCCN)C(=O)NC(Cc1c[nH]c2ccccc12)C(=O)NC(CCCCN)C(=O)NC(CCCCN)C(N)=O (stereo not given)" modifier_sign=> observed=50
molecule=CC(=O)NNc1nc(C)c(C(/C=C/c2ccccc2O)=N/NC(=O)c2ccncc2)s1 modifier_sign=> observed=100
molecule="O=C1CC(N2C(=O)/C(=C/C(Cl)=C\\c3ccc([N+](=O)[O-])cc3)SC2=S)C(=O)N1c1ccc(Cl)cc1 (stereo not given)" modifier_sign== observed=0.979
molecule="CCN(CC)CCCC(C)N/C(c1cccc(OC)c1)=c1\\c(=O)[nH]n(-c2c3ccccc3nc3ccccc23)c(=O)\\c1=C(/NC(C)CCCN(CC)CC)c1cccc(OC)c1 (stereo not given)" modifier_sign== observed=5.06
molecule="COc1ccc(C2c3cc4c(cc3OC(O)(CO)C2C(=O)O)OCO4)c(OC)c1OC (stereo not given) (tested in a mixture with another compound)" modifier_sign=> observed=100

---

# Test system: OVCAR-4 ovarian
# Protocol Text: NCI tumour cell line growth inhibition, 48 h
Metric Name: TGI

compound="CC(=O)OCCC[C@@H]1C(=C(C)C)CCC2[C@@]1(C)CC[C@@]1(C)C[C@](C)(CCC=C(C)C)CC[C@]21C (some centres undefined)" metric_name=TGI observed="> 100 µM"
compound=O=[N+]([O-])c1ccccc1/C=C/C=C1c2ccccc2-c2ccccc21 metric_name=TGI observed="> 100 µM"
compound=O=c1[nH]c2nccn2c(Cl)c1Br metric_name=TGI observed="34.9 µM"
compound=Cn1c(Cc2ccccc2)nc2cc3ccccc3cc21 metric_name=TGI observed="> 100 µM"
compound=N=c1oc2cc(O)c(O)cc2cc1C(N)=O metric_name=TGI observed="> 100 µM"
compound="CC1N(O)C(c2ccccc2)C(c2ccccc2)=[N+]1[O-] (centres undefined)" metric_name=TGI observed="> 100 µM"
compound="Cc1ccc(-c2cnc(NC3OC(COC(=O)c4ccccc4)C(OC(=O)c4ccccc4)C(OC(=O)c4ccccc4)C3OC(=O)c3ccccc3)s2)cc1 (centres undefined)" metric_name=TGI observed="> 100 µM"
compound=Cc1c(N(C(=O)c2cc(-c3cc(Cl)ccc3C(=O)N3Cc4ccccc4C[C@H]3CN3CCOCC3)n(C)c2C)c2ccc(O)cc2)cc(C#N)n1C metric_name=TGI observed="> 100 µM"
compound=Cc1nn(-c2ccccc2)c2nc3c(c(C)nn3-c3ccccc3)c(-c3ccccc3Br)c12 metric_name=TGI observed="> 100 µM"
compound=COc1ccc2c(c1)/C(=C/c1c(-c3ccc(C)cc3)nc3sc(C)cn13)C(=O)N2 metric_name=TGI observed="> 100 µM"
compound=Cc1c(C(=O)Nc2ccc(Cl)c(C(F)(F)F)c2)oc2cc(O)ccc2/c1=N\NC(N)=S metric_name=TGI observed="> 100 µM"
compound="N#CC(c1ccc(Cl)cc1)c1cccc(Cl)n1 (centres undefined)" metric_name=TGI observed="> 100 µM"
compound=S=C(NCCCCCCNC(=S)Nc1c2ccccc2nc2ccccc12)Nc1c2ccccc2nc2ccccc12 metric_name=TGI observed="> 100 µM"
compound="OCC1OC(O)C(N=Cc2ccc3c(c2)OCO3)C(O)C1O (centres undefined)" metric_name=TGI observed="> 100 µM"
compound=O=C1OC2(c3ccccc31)c1cc(I)c(O)c(I)c1Oc1c2cc(I)c(O)c1I metric_name=TGI observed="> 100 µM"
compound=Cc1nc(Nc2ccccc2)sc1C(=O)NNC(N)=O metric_name=TGI observed="> 100 µM"
compound=O=C1C=CC(=O)N1c1ccc2c(c1)Cc1cc(NC(=O)C(F)(F)F)ccc1-2 metric_name=TGI observed="31.2 µM"
compound="CC(C)[Si](OCC/C=C/C1CCC(=O)C1C(O)C1CCCCC1)(C(C)C)C(C)C (centres undefined)" metric_name=TGI observed="38.6 µM"
compound=O=c1oc2ccccc2c(O)c1C(c1ccc2ccccc2c1)c1c(O)c2ccccc2oc1=O metric_name=TGI observed="> 100 µM"
compound=CSC1=N/C(=C\c2ccc(Cl)cc2)C(=O)N1CN1CCOCC1 metric_name=TGI observed="61.6 µM"
compound=COc1ccc2c(c1)-c1c(c3ccccc3n1CCN1CCCCC1)CC2 metric_name=TGI observed="> 100 µM"
compound=CCOC(=O)C(=O)Nc1ccc([N+](=O)[O-])cc1C#N metric_name=TGI observed="> 100 µM"
compound="CCOC(=O)c1c(-c2ccc(Cl)cc2)c(C#N)c(=S)n(C2OC(CO)C(O)C(O)C2O)c1-c1ccccc1 (centres undefined)" metric_name=TGI observed="> 100 µM"
compound=C[C@]12CC[C@H]3[C@@H](CC=C4C[C@@H](O)CC[C@@]43C)[C@@H]1C/C(=C\c1cccc(OCCCn3ccnc3)c1)[C@@H]2O metric_name=TGI observed="32.7 µM"
compound=NC(=O)CC1(O)C=CC(=O)C=C1 metric_name=TGI observed="> 100 µM"
compound=C=C1[C@H](OCC(C)C)[C@@H](OCC(C)C)[C@@H](O)C(C)(C)/C=C/[C@H](C)C(=O)[C@@]2(O)C[C@H](C)[C@H](O)[C@@H]2[C@H]1OCC(C)C metric_name=TGI observed="> 7.5 µM"
compound=N#CCc1[nH]nc2nc(SCc3ccccc3)nc(N3CCCCC3)c12 metric_name=TGI observed="36.4 µM"
compound=C=C1C(=O)O[C@H]2[C@H]1CC/C(COC(=O)N[C@@H](Cc1c[nH]c3ccccc13)C(=O)OC)=C\CC[C@@]1(C)O[C@@H]21 metric_name=TGI observed="5.62 µM"
compound=CN(C)c1ccc2[nH]c(O)c(C=Nc3ccc(S(N)(=O)=O)cc3)c2c1 metric_name=TGI observed="> 25 µM"
compound=COc1cc2c3c(n(CCCn4ccnc4)c(=O)c2cc1OC)-c1ccccc1C3=O metric_name=TGI observed="22.4 µM"
compound=Cn1cc(C(=O)/C(Cl)=C(\Cl)C(=O)O)c2ccccc21 metric_name=TGI observed="> 100 µM"
compound=C[C@@H](Oc1cc(-c2cnn(C3CC4(CCNCC4)C3)c2)cnc1N)c1c(F)ccc(Cl)c1Cl metric_name=TGI observed="6.53 µM"
compound="CC(=O)C1(c2ccccc2)CCCN(C)CC1 (centres undefined)" metric_name=TGI observed="> 100 µM"
compound=CCC[CH2][Sn]([CH2]CCC)([O]C(=O)c1cccc(F)c1F)[O][Sn]([CH2]CCC)([CH2]CCC)[O]C(=O)c1cccc(F)c1F metric_name=TGI observed="1.28 µM"
compound="OC1OC(c2ccc[nH]2)C(F)(F)C(F)(F)C1(F)F (centres undefined)" metric_name=TGI observed="> 100 µM"
compound="O=C(O)c1ccccc1C(=O)OCC1CCCN2CCCCC12 (centres undefined)" metric_name=TGI observed="> 100 µM"
compound=CCCN1C(=O)/C(=C/c2ccc(O)cc2)SC1=Nc1ccccc1 metric_name=TGI observed="49.5 µM"
compound="Cc1ccc(NC(=O)/C(=N/NC(=O)CC#N)C2C(=O)N(c3ccccc3)N=C2N)cc1C (centres undefined)" metric_name=TGI observed="> 100 µM"
compound=NC(=S)Nc1nnc(-c2ccc(-c3nnc(NC(N)=S)o3)cc2)o1 metric_name=TGI observed="> 100 µM"
